Cited source: the Deep4Chem optical property database

Experiment: solvent given as SMILES
Conditions: in CC#N
Overview of recorded absorption maximum for various compounds
PROPERTY NAME: absorption maximum (nm)

1) CN(C)c1ccc(C2=Nc3scc(-c4ccccc4)[n+]3[B-](F)(F)O2)cc1 : 406
2) Cc1ccc2sc3cc(CCC(=O)O)ccc3c(=O)c2c1 : 401
3) O=C1c2ccccc2-c2c(-c3cc(Cl)ccc3O)[nH]c(=O)n21 : 390

====

Assay: solvent given as SMILES
Conditions: in CC#N
Returns met if the recorded absorption maximum is greater than or equal to 400 nm, and not met otherwise.

1. O=C(O)CC[N+]1=c2cc3c(cc2CCC1)=Cc1c(c2cc4c5c(c2oc1=O)CCCN5CCC4)O3 : met
2. CC(C)(C)c1ccc2c(c1)sc1[n+]2[B-](F)(F)n2c(c3cccc4c(Br)ccc2c43)=N1 : met
3. c1csc(-c2ccc(-c3cccs3)s2)c1 : not met
4. Nc1nc2ccc([N+](=O)[O-])cc2s1 : not met
5. N#Cc1ccc2[nH]ccc2c1 : not met
6. Cc1c[nH]c(=O)[nH]c1=O : not met
7. CCC1=C(C)C2=C(c3ccc(-c4c5ccccc5c(-c5ccccc5)c5ccccc45)cc3)c3c(C)c(CC)c(C)n3[B-](F)(F)[N+]2=C1C : met
8. c1ccc(-n2c(-c3ccc(-c4ccc(-c5ccc(-c6nc7c8ccccc8c8ccccc8c7n6-c6ccccc6)cc5)cc4)cc3)nc3ccccc32)cc1 : not met
9. COC(=O)c1nc2c(N(C)C)nc(N(C)C)nc2n1Cc1ccccc1 : not met
10. COc1ccc(N2c3cc(OC)ccc3N=c3cc4c(cc32)=Nc2cc(C(C)(C)C)cc(C(C)(C)C)c2O4)cc1 : met
11. CN(C)c1ccc2nc(-c3ccccc3)sc2c1 : not met
12. COc1ccc2nc(N)sc2c1 : not met
13. CCCCCCCCCCCn1cccc1C1=[N+]2C(=Cc3c(C)cc(C)n3[B-]2(F)F)c2ccccc21 : met
14. c1cc2ccc3cccc4c(-c5cc(-c6nccs6)nc(-c6nccs6)c5)cc(c1)c2c34 : not met
15. Cc1ccc2c(nc3c(=O)n(C)c(=O)nc-3n2C)c1C : met
16. CC1=C(C(C)(C)C)C(C)=[N+]2C1=C(C)c1c(C)c(C(C)(C)C)c(C)n1[B-]2(F)F : met
17. CCOC(=O)c1ccccc1-c1c2ccc(=[N+](CC)CC)cc-2oc2cc(N(CC)CC)ccc12 : met
18. CC(C)(C)c1ccc(-c2nc3c4ccc(-c5ccccc5)cc4c4cc(-c5ccccc5)ccc4c3n2-c2ccc(C(C)(C)C)cc2)cc1 : not met
19. O=C1Nc2ccccc2/C1=C/C(=O)c1ccc([N+](=O)[O-])cc1 : not met
20. c1ccc2c(c1)ccc1oc3ccc4cc5oc6ccc7ccc8oc9ccc%10ccccc%10c9c8c7c6c5cc4c3c12 : not met
21. O=[N+]([O-])c1ccc(F)cc1C1CC(c2cccc3ccccc23)=NN1c1ccccc1 (centres undefined) : not met
22. CC1=[N+]2C(=C(c3ccc(C#N)cc3)c3ccc(C)n3[B-]2(F)F)C=C1 : met
23. N#Cc1nnn(-c2ccnc3cc(Cl)ccc23)c1N : not met
24. O=S1(=O)C2=C(c3ccc(-c4ccc(N(c5ccccc5)c5ccccc5)cc4)cc31)C1(C3=C(c4ccccc41)S(=O)(=O)c1cc(-c4ccc(N(c5ccccc5)c5ccccc5)cc4)ccc13)c1ccccc12 : met
25. Cc1cc2nc3[nH]c(=O)n(C)c(=O)c3nc2cc1C : not met
26. CC1=C(/C=C/c2ccccc2)C2=Cc3c(/C=C/c4ccccc4)c(C)c(C)n3[B-](F)(F)[N+]2=C1C : met

====

Assay: solvent given as SMILES
Conditions: in CCOC(C)=O
PROPERTY NAME: absorption maximum (nm)

1. O=CN1N=C(c2ccc(Br)cc2)C[C@@H]1c1ccccc1 : 301
2. CC1=[N+]2C(=C(Oc3cc(C)c4c(c3)CC[C@@](C)(CCC[C@H](C)CCC[C@H](C)CCCC(C)C)O4)c3ccc(C)n3[B-]2(F)F)C=C1c1cc2n(c1)[B-](F)(F)[N+]1=CC=CC1=C2c1c(C)cc(C)cc1C : 575
3. N#Cc1cc2ccc(O)cc2oc1=N : 362
4. Cc1c2ccncc2c(C)c2c1[nH]c1ccccc12 : 291.5
5. CCOc1cc2c(cc1/C=C/C1=CC(=C(C#N)C#N)CC(C)(C)C1)c1ccccc1n2CC : 469
6. CC1=CC(C)=[N+]2C1=Cc1c3ccccc3c(C#Cc3cccs3)n1[B-]2(F)F : 620
7. CCN(CC)c1ccc2cc(/C=C/C(O)=C/C(C)=O)c(=O)oc2c1 : 447
8. CCC1=C(C)C2=Cc3c(I)c(I)c(I)n3[B-](F)(F)[N+]2=C1C : 532
9. CCN(CC)c1ccc2cc(/C=C/C(=C(C#N)C#N)c3ccc(N(c4ccccc4)c4ccccc4)cc3)c(=O)oc2c1 : 507
10. COc1ccc2cc(-c3ccc(C(F)(F)F)cc3)oc(=O)c2c1 : 326
11. CCCCCN(c1ccccc1)c1ccc2c(c1)C(CC)(CC)c1cc(/C=C/c3ccc(/C=C(\C#N)C(=O)O)s3)ccc1-2 : 460
12. Cc1ccccc1C1=C2C=c3c(oc4ccccc34)=[N+]2[B-](F)(F)n2c1cc1c3ccccc3oc12 : 582
13. COc1cc(N(c2ccccc2)c2ccccc2)ccc1C=C(C#N)C#N : 439
14. CN(C)c1ccc(C2=Cc3c4ccccc4c4ccccc4[n+]3[B-](F)(F)O2)cc1 : 475
15. CCCCN1c2ccccc2Sc2cc(/C=C/C3=Nc4ccc5ccccc5c4C3(C)C)ccc21 : 416
16. COc1cc2c(cc1/C=C/C1=CC(=C(C#N)C#N)CC(C)(C)C1)c1ccccc1n2C : 462
17. CNC1=C2C=CC=[N+]2[B-](F)(F)n2cccc21 : 398.5
18. COc1ccc(C2CC(c3ccc(O)cc3)=NN2c2ccc(S(N)(=O)=O)cc2)cc1 (stereo unspecified) : 358
19. Cc1ccc(C2=C3C=CC(Cl)=[N+]3[B-](F)(F)n3c(Cl)ccc32)cc1 : 509
20. CCn1c2ccccc2c2cc(/C=C/c3cc(/C=C/c4ccc5c(c4)c4ccccc4n5CC)ncn3)ccc21 : 395
21. Cc1cc(O)c(C(C)C)cc1/N=C/c1ccc(C(F)(F)F)cc1 : 347
22. O=C1c2ccccc2C(=O)N1c1ccc(Cn2cncn2)cc1 : 290
23. CN(C)c1ccc(/C=C2\CC/C(=C\c3ccc(C#N)cc3)C2=O)cc1 : 446
24. COC(=O)C(Cc1ccc2oc(-c3ccc(N(C)C)cc3)nc2c1)NC(=O)OC(C)(C)C (stereo unspecified) : 339.7
25. CN(C)c1ccc(/C=C/C(=C(C#N)C#N)c2ccc3c4c(cccc24)CC3)cc1 : 497
26. CN(C)c1ccc(/C=C/C=C2\CC/C(=C\c3ccc(N(C)C)cc3)C2=O)cc1 : 464
27. CCN1CCN(c2ccc(/N=N/c3cc(C(F)(F)F)cc(C(F)(F)F)c3)cc2)CC1 : 427
28. N#CSc1ccc2n1[B-](F)(F)[N+]1=C(N3CCOCC3)C=CC1=C2c1ccccc1 : 464
29. CCC1=C(C)C2=Cc3cccn3[B-](F)(F)[N+]2=C1C : 505
30. COc1nc(Nc2ccc3cc4ccccc4cc3c2)nc(OC)n1 : 395
31. CCn1c2ccccc2c2cc(-c3cc(-c4ccc5c(c4)c4ccccc4n5CC)nc(-c4ccccc4)n3)ccc21 : 360

====

Assay: solvent given as SMILES
Details: in C1CCOC1
PROPERTY NAME: absorption maximum (nm)

1) C1=Cc2ccccc2C(=Cc2ccc(C=C3c4ccccc4-c4ccccc43)cc2)c2ccccc21 : 360
2) O=S1(=O)C2=C(c3ccc(-c4ccc(N(c5ccccc5)c5ccccc5)cc4)cc31)C1(C3=C(c4ccccc41)S(=O)(=O)c1cc(-c4ccc(N(c5ccccc5)c5ccccc5)cc4)ccc13)c1ccccc12 : 431
3) CCN1c2ccc(-c3cc(-c4ccccc4)[nH]n3)cc2Sc2cc(-c3cc(-c4ccccc4)[nH]n3)ccc21 : 338
4) Cc1cccc(C2=CC3=C(c4c(C)cc(C)cc4C)c4cc(-c5cccc(C)c5)c(-c5cccc(C)c5)n4[B-](F)(F)[N+]3=C2c2cccc(C)c2)c1 : 577
5) COc1cccc2cc(-c3ccc([N+](=O)[O-])cc3)c(=N)oc12 : 339
6) CN(C)c1ccc(C2=Nc3sc4cc(Cl)ccc4[n+]3[B-](F)(F)O2)cc1 : 430
7) COc1ccc(C(=O)/C=C/c2ccc(N(C)C)cc2)cc1OC : 403
8) Fc1ccc(-c2nc3n(c2-c2ccncc2)CCS3)cc1 : 328.5
9) CCCCOc1ccc(-c2oc3cc4n(c3c2-c2ccc(OCCCC)cc2)[B-](F)(F)[N+]2=Cc3cc5oc(-c6ccc(OCCCC)cc6)c(-c6ccc(OCCCC)cc6)c5n3[B-](F)(F)[N+]2=C4)cc1 : 596
10) COc1ccc(C#Cc2ccc(C#Cc3ccc(C#Cc4ccccc4C#N)cc3C#N)cc2C#N)cc1 : 369
11) CCCCCCCCCCCCN1C(=O)c2cccc3c(N(Cc4ccccn4)Cc4ccccn4)c4ccccc4c(c23)C1=O : 497
12) O=C(c1ccncc1)c1ccc(-n2c3ccccc3c3cc(-n4c5ccccc5c5ccccc54)ccc32)cc1 : 342.64
13) F[Si](c1ccccc1)(c1ccccc1)c1c2ccccc2cc2ccccc12 : 393
14) COc1ccc(-n2c(-c3ccc(-c4cncc5ccccc45)cc3)nc3c4ccccc4c4ccccc4c32)cc1 : 365
15) c1ccc2c(c1)c1ccccc1n2-c1ccc2c(c1)c1ccccc1n2-c1cc2c3ccccc3n3c4ccccc4c(c1)c23 : 344
